Reference source for all entries: patent US20230114153A1

Target: CYP1A (Homo sapiens, UniProt P05177)
Construct: incubated with human liver microsomes; tissue Eurofins (contract protocol) ITEMG232; host or cells: human liver microsomes
Sequence (P05177 whole entry): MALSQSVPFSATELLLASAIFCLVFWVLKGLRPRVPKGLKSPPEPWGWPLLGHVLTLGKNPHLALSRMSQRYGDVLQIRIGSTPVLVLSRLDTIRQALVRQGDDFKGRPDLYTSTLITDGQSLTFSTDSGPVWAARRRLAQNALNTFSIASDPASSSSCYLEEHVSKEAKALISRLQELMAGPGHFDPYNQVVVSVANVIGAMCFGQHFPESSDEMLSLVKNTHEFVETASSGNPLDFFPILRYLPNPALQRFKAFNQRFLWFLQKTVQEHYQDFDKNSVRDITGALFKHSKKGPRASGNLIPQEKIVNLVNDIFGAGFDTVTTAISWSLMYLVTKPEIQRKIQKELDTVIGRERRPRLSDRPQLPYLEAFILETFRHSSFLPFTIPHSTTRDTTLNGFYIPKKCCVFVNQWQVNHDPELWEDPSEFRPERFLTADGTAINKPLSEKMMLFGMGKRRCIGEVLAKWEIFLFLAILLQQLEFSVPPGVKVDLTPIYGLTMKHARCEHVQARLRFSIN
Assay: CYP inhibition in human liver microsomes, CYP1A
Format: in vitro ADME
Settings: probe phenacetin, substrate phenacetin, read-out: CYP1A Inh %
Description: The following substrates were used; CYP1A phenacetin, CYP2B6 bupropion, CYP2C8 paclitaxel and amodiaquine, CYP2C9 diclofenac, CYP2C19 omeprazole, CYP2D6 dextromethorphan, CYP3A midazolam and testosterone. At the end of the incubation, the formation of metabolite was monitored by HPLC-MS/MS as the peak area response.
endpoint_label: inhibition at 10 µM

INSERT INTO measurements (compound, endpoint_label, recorded_value) VALUES
  ('CCCCOC(=O)NS(=O)(=O)c1sc(CC(C)C)cc1-c1ccc(Cn2ccnc2)cc1 [Example C21, reference compound]', 'inhibition at 10 µM', '90.9%'),
  ('CCCCOC(=O)NS(=O)(=O)c1sc(CC(C)C)cc1-c1ccc(Cn2ccnc2C)cc1', 'inhibition at 10 µM', '2.5%');
